# Test system: LOX IMVI melanoma
# test_name: NCI tumour cell line growth inhibition, 48 h; in the data active = GI50 below about 0.43 µM; inactive = the rest
Possible outcomes: active, inactive

* CCc1cccc(C)c1NC(=O)c1sc2nc3c(cc2c1N)CCCCC3 | inactive
* COc1cccc(-c2nc3sccn3c2-c2ccnc(NCCCNS(=O)(=O)c3cccc(F)c3)c2)c1 | inactive
* [Cl-].[O-]/N=C(\c1ccccc1)c1ccccn1.[O-]/N=C(\c1ccccc1)c1ccccn1.[O-]/N=C(\c1ccccc1)c1ccccn1.[Sm+3] | inactive
* CC(C)(C)C(=O)c1c(C(F)(F)F)n([O-])c2ccccc2[n+]1=O | active
* CO[C@H]1/C=C/O[C@@]2(C)Oc3c(C)c(O)c4c(c3C2=O)C(=O)C(/C=N/N(c2ccccc2)c2ccccc2)=C(NC(=O)/C(C)=C\C=C\[C@H](C)[C@H](O)[C@@H](C)[C@@H](O)[C@@H](C)[C@H](OC(C)=O)[C@@H]1C)C4=O | inactive
* COc1ccc(-c2cn[nH]c2-c2cc(OC)c3c(c2)OCO3)cc1 | inactive
* CCC[CH2][Sn]([CH2]CCC)([CH2]CCC)[O]c1ccc(Cl)cc1Cl | active

---

# Test system: SF-268 CNS
# test_name: NCI tumour cell line growth inhibition, 48 h; in the data active means GI50 below about 0.43 µM; inactive means the rest
Possible outcomes: active, inactive

* Fc1ccc2[nH]cc(-c3nonc3-c3c[nH]c4ccc(Br)cc34)c2c1 | inactive
* COc1cc(C#Cc2ccc(=O)oc2C#Cc2ccccc2)cc(OC)c1OC | inactive
* S=C(Nc1ccc(Br)cc1)Nc1ccc(Br)cc1 | inactive
* O=C(Nc1cccc(-n2ccc3c(NC(=O)c4ccccc4)nccc32)c1)Nc1cc(C(F)(F)F)cc(C(F)(F)F)c1 | inactive
* Cc1ccc(-c2csc(/N=C3\C(=O)Nc4ccccc43)n2)cc1 | inactive
* COc1ccc(-c2cn[nH]c2-c2cc(OC)c3c(c2)OCO3)cc1 | inactive
* Clc1nc(Cl)c2ncn(Cc3cccc(Cn4cnc5c(Cl)nc(Cl)nc54)c3)c2n1 | inactive
* C#CCOc1cccc(-c2ncnc3cc(NC(=O)CCl)ccc23)c1 | inactive
* COc1cc(/C=C2\C(=O)Nc3cc(C)c(O)cc32)cc(OC)c1OC | inactive
* CCC[CH2][Sn]([CH2]CCC)([CH2]CCC)[O]c1ccc(Cl)cc1Cl | active

---

# Test system: CAKI-1 renal
# test_name: NCI tumour cell line growth inhibition, 48 h
Reported TGI values for a set of compounds
parameter: TGI (µM)

- C[N-]c1nnnn1C.[Au+].c1ccc([PH+](c2ccccc2)c2ccccc2)cc1: 5
- CN(C)CC(C)(C)C(=O)/C=C/c1ccc(/C=C/C(=O)C(C)(C)CN(C)C)cc1: 2.9
- [N-]=[N+]=C1N=CN=C1c1ncn[nH]1: 37.5
- Clc1ccc(SC(/C=C/NNC2=NC(c3ccccc3)C(c3ccccc3)=NN2)c2ccccc2)cc1 (stereo not given): 54.1
- COc1cc(NC(N)=NCCC(C)(C)Oc2ccc(C(F)(F)F)cc2)ncc1C#N: 2.9
- C=C(c1ccc2nc(NC(=O)OC)[nH]c2c1)c1cccs1: 8.27

---

# System: BT-549 breast
# test_name: NCI tumour cell line growth inhibition, 48 h; in the data active = GI50 below about 0.43 µM; inactive = the rest
Possible outcomes: class 1 for active, class 0 for inactive

• CCOC(=O)c1sc(-c2ccc(OS(=O)(=O)c3ccc(Br)s3)c(C=O)c2)nc1C = class 0
• COC(=O)[C@@H](C)C[C@H](Cc1ccccc1)NC(=O)c1csc(CC[C@H](C(C)C)N(C)C(=O)[C@@H](NC(=O)[C@H]2CCCCN2C)C(C)C)n1 = class 1
• COC(=O)CCc1c[nH]c2ccc(N(CCCl)CCCl)cc12 = class 0
• COc1ccc(C(=O)/C=C/c2ccc(C)cc2)cc1OC = class 0
• C=C1C(O)C2C(=C(CCc3ccccc3)C13CC3)C(=O)C(C)(CO)C2O (stereo not given) = class 0
